target: beta-catenin (human); experiment: fluorescence polarization
Sequence (B6V8E6 146-665 limits assumed): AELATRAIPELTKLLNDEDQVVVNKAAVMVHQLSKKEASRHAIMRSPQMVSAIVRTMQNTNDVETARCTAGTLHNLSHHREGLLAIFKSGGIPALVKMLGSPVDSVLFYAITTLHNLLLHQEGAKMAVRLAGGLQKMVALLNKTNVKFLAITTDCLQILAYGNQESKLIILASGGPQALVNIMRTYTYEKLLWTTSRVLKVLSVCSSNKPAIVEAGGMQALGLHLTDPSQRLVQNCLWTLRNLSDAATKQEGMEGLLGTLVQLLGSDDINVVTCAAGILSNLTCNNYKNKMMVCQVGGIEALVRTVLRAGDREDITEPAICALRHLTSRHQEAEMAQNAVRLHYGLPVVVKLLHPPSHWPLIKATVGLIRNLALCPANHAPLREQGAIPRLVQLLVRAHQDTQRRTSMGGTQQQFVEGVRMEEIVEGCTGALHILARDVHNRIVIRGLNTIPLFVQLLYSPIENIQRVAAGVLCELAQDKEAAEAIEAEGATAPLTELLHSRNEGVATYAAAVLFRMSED
*1 amine or outer side, *2 acyl side, *3 side chain or, on linkers, in order; H or OH if unused. Bridges are numbered along the chain shown (N, C = ends). Primed or numbered codes have the meaning given here. [ ]: non-standard residue; d: D form. PyrS2(6) = (S)-3-amino-1-((pent-4-en-1-yloxy)carbonyl)pyrrolidine-3-carboxylic acid, stapled with another olefin-containing amino acid residue through the olefin group, O=C(OCCCC=[*:3])N1CC[C@@](N[*:1])(C(=O)[*:2])C1; B5(4) = 2-amino-2-(pent-4-en-1-yl)hept-6-enoic acid, stapled through each of its two olefin groups with other olefin-containing amino acid residues, O=C(C(CCCC=[*:3])(CCCC=[*:4])N[*:1])[*:2]; PyrS2(3) = (S)-3-amino-1-((pent-4-en-1-yloxy)carbonyl)pyrrolidine-3-carboxylic acid, olefin residue, C=CCCCOC(=O)N1CC[C@@](N[*:1])(C(=O)[*:2])C1; B5(3) = 2-amino-2-(pent-4-en-1-yl)hept-6-enoic acid, two olefin arms, C=CCCCC(CCCC=C)(N[*:1])C(=O)[*:2]; Phe(3-COOH) = N[C@@H](Cc1cccc(C(=O)O)c1)C(=O)O; Bta = N[C@@H](Cc1csc2ccccc12)C(=O)O; αAllylPro = C=CC[C@@]1(C(=O)O)CCCN1; tBuAla = CC(C)(C)C[C@H](N)C(=O)O; 3Thi = N[C@@H](Cc1ccsc1)C(=O)O; Thr(ol) = C[C@@H](O)[C@H](N)CO; TriAzLys(3) = not defined here; GlnR = not defined here; sAla = not defined here
Form field: IC50 (one value per entry).

Ac-[αAllylPro]DL[B5(3)]DDKAF[GlnR][PyrS2(3)][3Thi][Bta]Q-NH2 (bridge 7-10; not fully specified (bridges); printed as Ac-PL3-Asp-Leu-B5-Asp-Asp-Lys*3-Ala-Phe-GlnR*3-PyrS2-3Thi-BztA-Gln-NH2; reading uncertain) [I-7]
< 50 nM

IC50 recorded for this binder, Ac-[αAllylPro]D[tBuAla][B5(4)]D[Phe(3-COOH)]AAF[sAla][PyrS2(6)][3Thi][Bta][TriAzLys(3)]-NH2 (triazole 10-14; not fully specified (bridges); printed as Ac-PL3-Asp-Npg-B5-Asp-3COOHF-Ala-Ala-Phe-sAla*3-PyrS2-3Thi-BztA-TriAzLys*3-NH2; reading uncertain) [I-24] , is < 50 nM

Looking up Ac-[αAllylPro]D[tBuAla][B5(3)]D[Phe(3-COOH)]AAFK[PyrS2(3)][3Thi][Bta][GlnR][Thr(ol)] (bridge 10-14; not fully specified (bridges); printed as Ac-PL3-Asp-Npg-B5-Asp-3COOHF-Ala-Ala-Phe-Lys*3-PyrS2-3Thi-BztA-GlnR*3-Throl; reading uncertain) [I-63] , I found its IC50 recorded as < 50 nM
